B1: library; numbered along this chain (parent)
chain: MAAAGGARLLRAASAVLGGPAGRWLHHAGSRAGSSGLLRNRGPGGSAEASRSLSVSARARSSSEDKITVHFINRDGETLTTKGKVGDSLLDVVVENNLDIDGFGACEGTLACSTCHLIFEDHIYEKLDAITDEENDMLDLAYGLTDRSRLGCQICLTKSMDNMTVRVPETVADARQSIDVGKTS

# Variants of: B1
# protocol_details: scaled log2 fold change in cell abundance, elesclomol vs control (0 = silent mean, 1 = nonsense mean) (scaled log2 ratio); higher = higher viability under elesclomol (loss of FDX1 cuproptosis function);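 note: variant abundance is its share of total variant reads in each endpoint sample, from next-generation sequencing of the integrated ORF PCR-amplified out of genomic DNA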
# particulars: with ABC1 FDX1 KO; elesclomol 5 nM; glucose 10 mM; 14 days
Class definitions on scaled log2 fold change: lo (below -0.1), med (-0.1 to below 0.1), hi (0.1 or more)

Challenge: Hi there! Could you help me figure out the category for G44I please?
Response given: med

Challenge: For D101H , which scaled log2 fold change bin applies?
Response given: med

Challenge: Category of V16T , please.
Response given: hi

Challenge: Input C106I ; output its category
Response given: hi

Challenge: Lab note: sort R74V into the matching scaled log2 fold change band.
Response given: hi

Challenge: Textbook exercise: identify the category of the variant given here, Y142R , according to its measured value.
Response given: hi

Challenge: Which class is correct for the following variant? G86F
Response given: hi

Challenge: Into which bin does this variant go? Q153L
Response given: hi

Challenge: For this variant, which bin applies? A12R
Response given: lo

Challenge: Band for S62T ?
Response given: med

Challenge: Consider G29T . To which scaled log2 fold change class does it belong?
Response given: lo

Challenge: Which scaled log2 fold change category applies to K82R here?
Response given: lo

Challenge: Into which bin does this variant go? G42A
Response given: lo

Challenge: For A174T , which scaled log2 fold change bin applies?
Response given: hi

Challenge: Kindly state the category for this variant: L90I
Response given: lo

Challenge: # bin label for S14H
Response given: lo

Challenge: Textbook exercise: identify the category of the variant given here, G29P , according to its measured value.
Response given: lo

Challenge: Assign a bin to F119L
Response given: med

Challenge: Would you mind sorting S62K into the appropriate category?
Response given: hi

Challenge: Which class is correct for the following variant? R74H
Response given: med

Challenge: Dear colleague, I would appreciate it if you could identify the bin for A13R and reply at your convenience.
Response given: lo

Challenge: Bin? S148N
Response given: hi

Challenge: Would you mind sorting D179E into the appropriate category?
Response given: med

Challenge: Kindly identify the class of G143S .
Response given: lo

Challenge: Assign a category based on measured scaled log2 fold change for G18M and give only the class name.
Response given: med

Challenge: Looking at N40M , which class would you pick?
Response given: lo

Challenge: Hi there! Could you help me figure out the category for Y124N please?
Response given: hi

Challenge: Tag the class for R23P
Response given: lo

Challenge: Hey, which category is C106N in, do you know?
Response given: hi

Challenge: // bin(item) where item = D136C
Response given: med

Challenge: # classify by scaled log2 fold change band: A15C
Response given: hi

Challenge: Exam item: assign L110N to the correct category.
Response given: hi

Challenge: Which of the defined bands does the recorded scaled log2 fold change of R23W sit within?
Response given: hi

Every entry's value here was drawn from the supplement of paper PMC12855868.
